Measured minimum inhibiting concentration (MIC), C. albicans 2043, listed per entry for reference.
Test system: C. albicans 2043
Assay: MIC, broth serial dilution in liquid YNB medium
Assay type: cell-based, Candida albicans
Conditions: YNB-Difco medium, 200 μg/ml sodium glutamate, 10^5 cells/ml, 30° C., 24 hours
Method: The minimum inhibiting concentrations (MIC) in mg/ml were determined for the compounds of Examples 1, 2, 7, 8, 12 and 13 against various Candida sp. using the broth serial dilution method of Milewski et al., Drugs Exp. Clin. Res., 1988, 14, 461. A liquid Yeast Nitrogen Base (YNB)-Difco medium containing 200 μg/ml sodium glutamate was used with a content of 10^5 cells/ml at a temperature of 30° C. and with an incubation time of 24 hours.
Report only the number, with the unit µg/mL understood.

Some compounds with recorded minimum inhibiting concentration (MIC), C. albicans 2043:
1) C[C@H](N)C(=O)N[C@@H](CNC(=O)[C@@H]1O[C@H]1C(N)=O)C(=O)O (racemic) [Ala--DL--EADP, reference compound]; 1000
2) CCC[C@H](N)C(=O)N[C@@H](CNC(=O)[C@@H]1O[C@H]1C(N)=O)C(=O)O (relative stereo) [Nva--EADP]; 100
3) CCC[C@H](NC(=O)[C@@H](N)CCCCN)C(=O)N[C@@H](CNC(=O)[C@@H]1O[C@H]1C(N)=O)C(=O)O (relative stereo) [Lys--Nva--EADP]; 250
4) CCC[C@H](NC(=O)[C@@H](N)CNC(=O)[C@@H]1O[C@H]1C(N)=O)C(=O)O (racemic) [DL--EADP--Nva]; 750
5) CCC[C@H](NC(=O)[C@@H](N)CCCCN)C(=O)N[C@@H](CNC(=O)[C@@H]1O[C@H]1C(N)=O)C(=O)O (racemic) [Lys--Nva--DL--EADP]; 500

Jot down minimum inhibiting concentration (MIC), C. albicans 2043 (C. albicans 2043) of CCC[C@H](N)C(=O)N[C@@H](CNC(=O)[C@@H]1O[C@H]1C(N)=O)C(=O)O (racemic) [Nva--DL--EADP] .
250

Give minimum inhibiting concentration (MIC), C. albicans 2043 for CCC[C@H](NC(=O)[C@@H](N)CNC(=O)[C@@H]1O[C@H]1C(N)=O)C(=O)O (relative stereo) [EADP--Nva] tested on C. albicans 2043.
500

====

System: C. famata 1940
Assay: MIC, broth serial dilution in liquid YNB medium
Type: cell-based, Candida famata
Conditions: YNB-Difco medium, 200 μg/ml sodium glutamate, 10^5 cells/ml, 30° C., 24 hours
Quick reference: minimum inhibiting concentration (MIC), C. famata 1940 of the listed items.
Quick reminder: number only, in µg/mL, skip the unit.

The examples below pair each entry with its known result.
1. CCC[C@H](NC(=O)[C@@H](N)CNC(=O)[C@@H]1O[C@H]1C(N)=O)C(=O)O (racemic) [DL--EADP--Nva]; 750
2. CCC[C@H](NC(=O)[C@@H](N)CCCCN)C(=O)N[C@@H](CNC(=O)[C@@H]1O[C@H]1C(N)=O)C(=O)O (racemic) [Lys--Nva--DL--EADP]; 1000

Using the record for CCC[C@H](NC(=O)[C@@H](N)CCCCN)C(=O)N[C@@H](CNC(=O)[C@@H]1O[C@H]1C(N)=O)C(=O)O (relative stereo) [Lys--Nva--EADP] , state its measured minimum inhibiting concentration (MIC), C. famata 1940.
500

Input CCC[C@H](N)C(=O)N[C@@H](CNC(=O)[C@@H]1O[C@H]1C(N)=O)C(=O)O (relative stereo) [Nva--EADP] , output reported minimum inhibiting concentration (MIC), C. famata 1940.
350

Return the recorded minimum inhibiting concentration (MIC), C. famata 1940 value; entry: CCC[C@H](NC(=O)[C@@H](N)CNC(=O)[C@@H]1O[C@H]1C(N)=O)C(=O)O (relative stereo) [EADP--Nva]
500

Tell us which minimum inhibiting concentration (MIC), C. famata 1940 value is on record for CCC[C@H](N)C(=O)N[C@@H](CNC(=O)[C@@H]1O[C@H]1C(N)=O)C(=O)O (racemic) [Nva--DL--EADP]
500

====

Tested on: C. albicans ATTC 26278
Test: MIC, broth serial dilution in liquid YNB medium
Type: cell-based, Candida albicans
Conditions: YNB-Difco medium, 200 μg/ml sodium glutamate, 10^5 cells/ml, 30° C., 24 hours
readout: minimum inhibiting concentration (MIC), C. albicans ATTC 26278 (µg/mL)
Record the value in µg/mL, omitting the unit from your answer.

1. CCC[C@H](NC(=O)[C@@H](N)CCCCN)C(=O)N[C@@H](CNC(=O)[C@@H]1O[C@H]1C(N)=O)C(=O)O (racemic) [Lys--Nva--DL--EADP]; 500
2. CCC[C@H](NC(=O)[C@@H](N)CNC(=O)[C@@H]1O[C@H]1C(N)=O)C(=O)O (relative stereo) [EADP--Nva]; 400
3. CCC[C@H](N)C(=O)N[C@@H](CNC(=O)[C@@H]1O[C@H]1C(N)=O)C(=O)O (relative stereo) [Nva--EADP]; 150

Would you please give the reported minimum inhibiting concentration (MIC), C. albicans ATTC 26278 of C[C@H](N)C(=O)N[C@@H](CNC(=O)[C@@H]1O[C@H]1C(N)=O)C(=O)O (racemic) [Ala--DL--EADP, reference compound] with C. albicans ATTC 26278?
1200

Please report minimum inhibiting concentration (MIC), C. albicans ATTC 26278 with C. albicans ATTC 26278 for item CCC[C@H](N)C(=O)N[C@@H](CNC(=O)[C@@H]1O[C@H]1C(N)=O)C(=O)O (racemic) [Nva--DL--EADP] .
250

Quote C. albicans ATTC 26278 minimum inhibiting concentration (MIC), C. albicans ATTC 26278 for entry CCC[C@H](NC(=O)[C@@H](N)CNC(=O)[C@@H]1O[C@H]1C(N)=O)C(=O)O (racemic) [DL--EADP--Nva] .
500

Print C. albicans ATTC 26278 minimum inhibiting concentration (MIC), C. albicans ATTC 26278 for CCC[C@H](NC(=O)[C@@H](N)CCCCN)C(=O)N[C@@H](CNC(=O)[C@@H]1O[C@H]1C(N)=O)C(=O)O (relative stereo) [Lys--Nva--EADP] .
200
